# test.description: Solubility of the reaction product in acetic acid and in acetic acid/water
# Assay type: physicochemical
# condition: organic solvent or mixture; in a 2:1 mixture of acetic acid and water
value.kind: solubility

Q. Look up solubility: NC(=O)C1(c2cccc(Sc3ccc(F)cc3)c2)CCOCC1 [Example 3]
A. ~4500 µg/mL

====

# test.description: Solubility of the reaction product in acetic acid and in acetic acid/water
# Format: physicochemical
# condition: organic solvent or mixture; in acetic acid at room temperature
# Experimental: The reaction mixture was cooled to 22°C and granulated for 1 hour. The resulting slurry was then vacuum filtered and the filter cake was washed twice with water (100 ml). The filter cake (75 g) was placed in a 50°C vacuum drier with a nitrogen bleed, after which 23.04 g of solid product were obtained for a yield of 74.0%.
value.kind: solubility

Q. Which solubility value is on record for NC(=O)C1(c2cccc(Sc3ccc(F)cc3)c2)CCOCC1 ?
A. ~62 mg/mL
